- Tested on: HEK293
- ASSAY_NOTES: maximal inhibition of ZIKV NS1 production (% inhibition); higher = stronger antiviral effect
READOUT_TYPE: maximal inhibition

[
  {
    "MOLECULE": "Cc1ccc(C(=O)N(CCCN)[C@@H](c2nc3cc(Cl)ccc3c(=O)n2Cc2ccccc2)C(C)C)cc1",
    "READOUT_TYPE": "maximal inhibition",
    "RECORDED_RESULT": 98
  },
  {
    "MOLECULE": "CC(C)C[C@H](NC(=O)[C@H](CCc1ccccc1)NC(=O)CN1CCOCC1)C(=O)N[C@@H](Cc1ccccc1)C(=O)N[C@@H](CC(C)C)C(=O)[C@@]1(C)CO1",
    "READOUT_TYPE": "maximal inhibition",
    "RECORDED_RESULT": 90
  },
  {
    "MOLECULE": "FC(F)c1nc2ccccc2n1-c1nc(N2CCOCC2)nc(N2CCOCC2)n1",
    "READOUT_TYPE": "maximal inhibition",
    "RECORDED_RESULT": 85
  },
  {
    "MOLECULE": "Oc1cccc(-c2nc(N3CCOCC3)c3oc4ncccc4c3n2)c1",
    "READOUT_TYPE": "maximal inhibition",
    "RECORDED_RESULT": 92
  },
  {
    "MOLECULE": "C#CCC(Cc1cnc2nc(N)nc(N)c2n1)c1ccc(C(=O)N[C@@H](CCC(=O)O)C(=O)O)cc1 (stereo partly specified)",
    "READOUT_TYPE": "maximal inhibition",
    "RECORDED_RESULT": 101
  },
  {
    "MOLECULE": "COc1cccc(-c2ccc(NC(=O)C3=C(C(=O)O)CCC3)c(F)c2)c1",
    "READOUT_TYPE": "maximal inhibition",
    "RECORDED_RESULT": 107
  },
  {
    "MOLECULE": "O=C1NC(=O)[C@@H](c2cn3c4c(cccc24)CCC3)[C@@H]1c1c[nH]c2ccccc12",
    "READOUT_TYPE": "maximal inhibition",
    "RECORDED_RESULT": 86
  },
  {
    "MOLECULE": "O=C(Nc1ccc([N+](=O)[O-])cc1Cl)c1cc(Cl)ccc1O",
    "READOUT_TYPE": "maximal inhibition",
    "RECORDED_RESULT": 102
  },
  {
    "MOLECULE": "Cc1c(N)nc([C@H](CC(N)=O)NC[C@@H](N)C(N)=O)nc1C(=O)N[C@H](C(=O)N[C@@H](C)[C@H](O)[C@@H](C)C(=O)N[C@@H](C(=O)NCCc1nc(-c2nc(C(=O)NCCC[S+](C)C)cs2)cs1)[C@@H](C)O)C(O[C@H]1O[C@H](CO)[C@H](O)[C@@H](O)[C@H]1O[C@H]1O[C@H](CO)[C@@H](O)[C@H](OC(N)=O)[C@@H]1O)c1cnc[nH]1 (stereo partly specified)",
    "READOUT_TYPE": "maximal inhibition",
    "RECORDED_RESULT": 103
  },
  {
    "MOLECULE": "NS(=O)(=O)c1cccc2c1C(=O)c1cccc(O)c1C2=O",
    "READOUT_TYPE": "maximal inhibition",
    "RECORDED_RESULT": 98
  },
  {
    "MOLECULE": "c1ccc2c(CCNc3ccc(Nc4ccncc4)cc3)c[nH]c2c1",
    "READOUT_TYPE": "maximal inhibition",
    "RECORDED_RESULT": 51
  },
  {
    "MOLECULE": "CN(C)CCN(C)C(=O)c1ccc(NC(=O)Nc2ccc(-c3nc(N4CCOCC4)c4ccn(CC(F)(F)F)c4n3)cc2)cc1",
    "READOUT_TYPE": "maximal inhibition",
    "RECORDED_RESULT": 76
  },
  {
    "MOLECULE": "Cc1c2oc3c(C)ccc(C(=O)N[C@@H]4C(=O)N[C@H](C(C)C)C(=O)N5CCC[C@H]5C(=O)N(C)CC(=O)N(C)[C@@H](C(C)C)C(=O)O[C@@H]4C)c3nc-2c(C(=O)N[C@@H]2C(=O)N[C@H](C(C)C)C(=O)N3CCC[C@H]3C(=O)N(C)CC(=O)N(C)[C@@H](C(C)C)C(=O)O[C@@H]2C)c(N)c1=O",
    "READOUT_TYPE": "maximal inhibition",
    "RECORDED_RESULT": 99
  },
  {
    "MOLECULE": "O=C1C(Cl)=C(NCCN2CCOCC2)C(=O)c2ncccc21",
    "READOUT_TYPE": "maximal inhibition",
    "RECORDED_RESULT": 104
  },
  {
    "MOLECULE": "NCC(=O)Nc1ccc(-n2nc(C(F)(F)F)cc2-c2ccc3c(ccc4ccccc43)c2)cc1",
    "READOUT_TYPE": "maximal inhibition",
    "RECORDED_RESULT": 106
  },
  {
    "MOLECULE": "C1CCC(C(CC2CCCCN2)C2CCCCC2)CC1 (stereo unspecified)",
    "READOUT_TYPE": "maximal inhibition",
    "RECORDED_RESULT": 98
  }
]
